Origin of values: patent US8134015B2

# system: rat NaPi-2b (Rattus norvegicus, UniProt Q9JJ09)
# Construct: expressed in transfected cells; host or cells: Xenopus oocytes injected with cRNA
# Sequence (Q9JJ09 whole entry): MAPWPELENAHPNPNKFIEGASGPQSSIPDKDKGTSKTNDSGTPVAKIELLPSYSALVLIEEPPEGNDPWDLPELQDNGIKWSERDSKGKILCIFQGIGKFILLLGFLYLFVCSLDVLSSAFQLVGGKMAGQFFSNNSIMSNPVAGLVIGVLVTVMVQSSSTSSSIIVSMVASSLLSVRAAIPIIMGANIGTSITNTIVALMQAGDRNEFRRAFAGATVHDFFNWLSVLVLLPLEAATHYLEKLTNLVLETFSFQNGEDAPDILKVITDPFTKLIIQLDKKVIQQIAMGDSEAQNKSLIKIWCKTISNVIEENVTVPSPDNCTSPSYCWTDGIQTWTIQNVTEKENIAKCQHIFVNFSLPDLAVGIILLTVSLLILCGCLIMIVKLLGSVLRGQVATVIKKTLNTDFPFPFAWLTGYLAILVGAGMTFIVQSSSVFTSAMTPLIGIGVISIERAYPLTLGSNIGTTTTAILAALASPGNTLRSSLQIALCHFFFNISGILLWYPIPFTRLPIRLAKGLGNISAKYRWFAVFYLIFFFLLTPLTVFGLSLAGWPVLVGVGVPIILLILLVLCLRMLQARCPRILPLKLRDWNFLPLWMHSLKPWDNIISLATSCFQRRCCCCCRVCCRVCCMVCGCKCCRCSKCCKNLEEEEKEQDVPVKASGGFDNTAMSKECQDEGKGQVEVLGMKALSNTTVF
# test_protocol: Sodium-dependent phosphate uptake of Xenopus oocytes which expressed NaPi-2b (32P)
# Assay type: cell-based
# settings: phosphate uptake, oocytes expressing rat NaPi-2b; 300 μM, determined from inhibition curve
observation_type: inhibition at 300 µM (%)
Just the number in %, nothing appended.

Solved cases (6 shown):
{"chemical_smiles": "Cc1cccc(C=NNC(=O)c2cc(Br)ccc2NC(=O)c2ccc(C(C)(C)C)cc2)c1", "inhibition at 300 µM (%)": 30.3}
{"chemical_smiles": "O=C(Nc1ccc(Cl)cc1C(=O)N/N=C/c1cccc(F)c1)c1cccc(CN(CCO)CCO)c1", "inhibition at 300 µM (%)": 85.1}
{"chemical_smiles": "CN(CCCNCc1ccc(C(=O)Nc2ccc(Br)cc2C(=O)N/N=C/c2ccc(F)cc2)cc1)c1ccccc1", "inhibition at 300 µM (%)": 63.9}
{"chemical_smiles": "CCN(CC)CCNCc1cccc(C(=O)Nc2c(C)csc2C(=O)N/N=C/c2ccc(C)c(C)c2)c1", "inhibition at 300 µM (%)": 88.2}
{"chemical_smiles": "CN(CCCN(C)Cc1cccc(C(=O)Nc2ccc(Cl)cc2C(=O)N/N=C/c2ccc(F)cc2)c1)Cc1cccc(C(=O)Nc2ccc(Cl)cc2C(=O)N/N=C/c2ccc(F)cc2)c1", "inhibition at 300 µM (%)": 54}
{"chemical_smiles": "C/C(=N\\NC(=O)c1cc(Cl)ccc1NC(=O)c1cccnc1)c1cccc(C)c1", "inhibition at 300 µM (%)": 37.9}

IN: Consider the molecule O=C(Nc1ccc(Cl)cc1C(=O)N/N=C/c1ccc(F)cc1)c1cccc(CSCCS(=O)(=O)O)c1 . State its measured inhibition at 300 µM.
OUT: 42
